# test.system: HLA-DR DRB1*0401 (human)
# test.method.notes: competition with 125I probe, purified MHC II
measure: pIC50
Answers are plain numbers, as −log10 of the molar value.

[
  {
    "binder": "YLDPLIRGLLARPAKLQV [NP7 (TPO Y535-551)]",
    "pIC50": 6.16
  }
]

Turning to the following binder.
Query: What pIC50 value was documented for this binder, DTPYLDITYHFVMQRLPL [Torp. Ach Rec. 195-212] ?
Response: 6.80
